# test_system: T1, recombinant hAng2 (C-His, R&D Systems) (human, UniProt O15123 19-496)
# T1 construct: Bought protein captured on an anti-His chip; not shown: C-terminal His tag
# T1 sequence: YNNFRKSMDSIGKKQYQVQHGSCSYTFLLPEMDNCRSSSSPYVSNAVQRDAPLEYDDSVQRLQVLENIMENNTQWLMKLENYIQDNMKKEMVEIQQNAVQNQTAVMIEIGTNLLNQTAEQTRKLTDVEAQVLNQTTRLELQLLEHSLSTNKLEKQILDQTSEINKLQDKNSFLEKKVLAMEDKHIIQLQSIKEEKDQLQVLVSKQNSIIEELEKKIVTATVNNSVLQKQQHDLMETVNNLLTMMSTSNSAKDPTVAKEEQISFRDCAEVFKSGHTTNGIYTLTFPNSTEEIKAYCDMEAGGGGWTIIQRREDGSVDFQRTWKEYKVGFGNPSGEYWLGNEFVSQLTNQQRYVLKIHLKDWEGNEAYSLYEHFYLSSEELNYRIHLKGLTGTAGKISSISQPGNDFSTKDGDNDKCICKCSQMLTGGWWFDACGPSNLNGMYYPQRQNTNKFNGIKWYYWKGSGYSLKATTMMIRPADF
# protocol: SPR, BIAcore T100, hAng2-His captured on anti-His CM5 chip, antibody flowed
property_label: pKd
// pKd is dimensionless: -log10 of concentration (M)

Exercise: Look at this binder and give its reported pKd. SAIT-ANG-2-AB-2-E6 (IgG form) (antibody, V domains shown, Intact human antibody: VH cloned into a vector with the constant region and Fc region of human IgG1, VL into pFUSE2-CLIg-hl2 (light chain constant region)) VH: EVQLLESGGGLVQTGGSLRLSCAASGFTFSDYAMSWVRQAPGKGLEWVSAIYPDSGNKYYADSVKGRFTISRDNSKNTLYLQMNSLRAEDTAVYYCARHSSDPKVKSGYYDDGMDVWGQGTLVAVSS VL: QSVLTQPPSASGTPGQRVTISCSGSSSNIGNNAVNWYQQLPGTAPKLLIYADSNRPSGVPDRFSGSKSGTSASLAISGLRSEDEADYYCGSWDYSLSGYVFGGGTKLTVLG
Solution: 9.19
